assay: Toxicity liver stage against HepG2, at 10uM; assay type: cell-based; parameters: test concentration 10 uM, cell line HepG2-A16-CD81EGFP; settings: human, HepG2-A16-CD81EGFP cells; read-out: INHIBITION
READOUT: cytotoxicity at 10 µM
Report field: quantity (unit follows the number).

Here are 2 compounds together with their reported answers.
>>> test_value("CN(C)C(C(=O)N1CCN(CCn2cccc2)CC1)c1cccc(F)c1 (stereo not drawn)")
"-22.8%"
>>> test_value("O=C(C1CC1)N1CCC(c2nc(O)c3c(n2)CCN(C2CCCC2)C3)C1 (stereo not drawn)")
"4.66%"

Shifting focus to the compound that follows.
q: Give the measured cytotoxicity at 10 µM of CC(C)c1nccc(CN2CCCC(O)(CN(C)C)C2)n1 (stereo not drawn) .
a: 2.89%

====

assay: Toxicity liver stage against HepG2, at 10uM; format: cell-based; parameters: test concentration 10 uM, cell line HepG2-A16-CD81EGFP; settings: human, HepG2-A16-CD81EGFP cells; read-out: INHIBITION
READOUT: cytotoxicity at 10 µM (%)
One number for each entry, in %.

Please state cytotoxicity at 10 µM for every compound in the list that follows.
1. COc1ccc(OCCc2nnc(NC(C)=O)s2)cc1
2. CC(C)C(C)(C#N)NC(=O)CN1CCC(c2ccnn2CCO)CC1 (centres undefined)

a:
0.0869
-4.95

Please state cytotoxicity at 10 µM for every compound in the list that follows.
1. Cc1nccn1CCC1CCCCN1Cc1ccc2c(c1)OCCO2 (centres undefined)
2. CN1CC2(CCCN(C(=O)Cc3cccc(O)c3)C2)OC1=O (centres undefined)
3. Cc1nc2c(c(=O)n1C)CN(C(=O)C1CCCN(C3CCCC3)C1)C2 (centres undefined)
4. c1cc(N2CCC(CN3CCOCC3)CC2)c2sccc2n1
5. Cc1cccc(C)c1NC(=O)c1cccc(N(C)S(C)(=O)=O)c1C

a:
1. -7.63
2. 4.61
3. -8.67
4. 10.8
5. 3.03

Please state cytotoxicity at 10 µM for every compound in the list that follows.
1. CN(C)S(=O)(=O)c1ccc(CNC(=O)C2CC2)cc1
2. COc1cccc2c1OCC(C(=O)NCCn1nc(C)c(Cl)c1C)C2 (centres undefined)
3. CCCOC1CCCN(C(=O)c2ccnc(N3CCN(C)CC3)c2)C1 (centres undefined)

a:
1: 7.04; 2: -5.89; 3: -5.7

Please state cytotoxicity at 10 µM for every compound in the list that follows.
1. CCOC(C)c1nccn1Cc1cc(C)on1 (centres undefined)
2. COCCN1CCOCC2(CCCN(Cc3cccc(F)c3)C2)C1 (centres undefined)
3. CN(CCCc1cnn(C)c1)C(=O)C1CCCN(C2CCCC2)C1 (centres undefined)
4. O=C(c1cccc(S(=O)(=O)NCCc2ccccn2)c1)N1CCOCC1
5. CCN(C(=O)CN1CCCC1c1cccs1)c1ccccc1C (centres undefined)
6. CCCc1[nH]n(C)c(=N)c1-c1ccc2c(c1)OCO2

a:
1. 8.41
2. 0.346
3. -7.17
4. -0.764
5. 3.7
6. -51.5

====

test: Toxicity liver stage against HepG2, at 10uM; assay type: cell-based; design: test concentration 10 uM, cell line HepG2-A16-CD81EGFP; conditions: human, HepG2-A16-CD81EGFP cells; read-out: INHIBITION
READOUT: cytotoxicity at 10 µM (%)
Give bare numbers, in %.

Here are 5 molecules together with their reported answers.
>>> test_value("CCc1nc2n(n1)CC(NCc1nc(C)ccc1O)CC2 (stereo not given)")
-9.96
>>> test_value("CC(C)Oc1ccccc1NC(=O)N1CCC(n2cncn2)CC1")
-3.67
>>> test_value("COc1ccc(NC(=O)Cn2nc(C)ccc2=O)cc1OC")
1.57
>>> test_value("Cc1nn(C)c(N(C)C)c1CNCc1ccccc1Cn1ccnc1")
-15.3
>>> test_value("CC(=O)N(CCc1nc(-c2cc(C(N)=O)oc2C)cs1)C(C)C")
0.988

Please state cytotoxicity at 10 µM for every molecule in the list that follows.
1. Cc1ccc(CN2Cc3ccccc3OC3(CCC(CO)CC3)C2)o1 (stereo not given)
2. Cc1cccc(CS(=O)(=O)c2nnc([C@@H](N)Cc3ccccc3)o2)c1
3. Cc1cccc(NC(=O)NCCCn2nc3ccccn3c2=O)c1C
4. O=C(c1cscn1)N1CCCC12CCCN(S(=O)(=O)c1ccccc1)C2 (stereo not given)
5. CN(Cc1nccn1C)S(=O)(=O)c1cccc(C#N)c1
6. Cc1cc(C)c(CNC(=O)N(C)CC2CCCCO2)c(=O)[nH]1 (stereo not given)

a:
1. -13.7
2. 7.09
3. -6.73
4. 4.35
5. 15.1
6. -8.93

Please state cytotoxicity at 10 µM for every molecule in the list that follows.
1. CCNC(=O)NC(=O)C(C)Nc1ccccc1OCCOC (stereo not given)
2. CCc1cnc(CN(C)C2CCN(CCc3ccccn3)C2)o1 (stereo not given)
3. CO[C@@H]1CCN(S(=O)(=O)c2cn(C)cn2)[C@H]1Cc1cnn(C)c1
4. CCNC(=O)[C@@H]1C[C@@H](n2cc(CN(CC)CC)nn2)CN1
5. COc1ccc(S(=O)(=O)NCCCc2ccc(N(C)C)cc2)cc1F
6. Cc1ncccc1C(=O)NCC(C)Oc1ccc(F)cc1 (stereo not given)

a:
1. 4
2. -14.2
3. 4.56
4. 0.334
5. -2.59
6. -4.08

Please state cytotoxicity at 10 µM for every molecule in the list that follows.
1. Cc1cc(F)ccc1N1CCCC(NC(=O)CCCn2ccnc2)C1 (stereo not given)
2. CCOc1ncccc1C(=O)N1CCN(C)C2(CCN(C)CC2)C1

a:
1. 3.45
2. -0.351
